- TARGET: T1, Human CD47-C33G (human, UniProt Q08722 19-135)
- T1 construct: also called CD47 mutein with C33G mutation
- T1 sequence (Q08722 19-135 C33G limits assumed): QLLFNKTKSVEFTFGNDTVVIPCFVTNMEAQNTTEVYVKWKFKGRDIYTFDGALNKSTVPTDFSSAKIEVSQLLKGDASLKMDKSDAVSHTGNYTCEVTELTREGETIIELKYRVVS
- RUN DESCRIPTION: SPR, IgG captured, CD47 in flow; exp 3;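 also: biacore T200 SPR with antibodies taken from supernatants of transfected HEK293 cells, C33G mutein avoiding IgV homodimers for monovalent affinity, Kd derived from association and dissociation rate constants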
VALUE TYPE: koff (s⁻¹)
Kindly answer with a numeric value in s⁻¹, unit omitted.

Asked: Reported koff for 108VH5.M18 / 108VL1.M5 (antibody, human IgG4 S228P, kappa, V domains shown, Full-length IgG4 (S228P), kappa; also called VH5.M18 VL1.M5) VH: EVQLVQSGAEVKKPGASVKVSCKASGYTFTHHWMHWVRQAPGQGLEWMGMIDASESETRYAQKFQGRVTMTRDTSTSTVYMELSSLRSEDTAVYYCARLGRYYFDYWGQGTLVTVSS VL: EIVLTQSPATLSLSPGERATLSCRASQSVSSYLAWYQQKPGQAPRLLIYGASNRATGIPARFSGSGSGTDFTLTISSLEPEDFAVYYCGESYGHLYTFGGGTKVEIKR : what is it?
Given back: 0.087

Reference for the values: patent US20260132197A1
